Examples of binders with documented pKd follow.
molecular target: T1, human monomeric EGFR (EGFR.mmh) (human, UniProt P00533 25-647); test: SPR 37C, mAb captured by anti-human Fc, EGFR.mmh analyte
T1 construct: Soluble monomeric EGFR construct
Please note pKd is a logarithmic value: minus log10 of concentration in mol/L. Answer with that number alone.

H1H142P (antibody, human IgG1, V domains shown, Human IgG1 Fc (H1H)) VH: QVQLQESGPGLVKPSQTLSLTCTVSGGSISSGDYYWNWIRQYPGKGLELIGYIYYSGITYYNPSLKSRLTISLDTSKNQFSLKLSSVTAADTAVYYCARDRVELRAFDIWGQGTMVTVSS VL: DIQMTQSPSSLSASIGDRITISCQASQDINNYLNWYQQKPGKAPKLLIYDASNLETGIPSRFSGSGSGTDFTFTISGLQPEDIATYYCQHYDSLPLTFGQGTRLEIK: 8.36
H1H161P (antibody, human IgG1, V domains shown, Human IgG1 Fc (H1H)) VH: QVQLVESGGGVVQPGRSLRLSCAASGFTFSNYGMYWVRQAPGKGLEWVTFISYDGSNKNYVDSMKGRFTISRDNSKNTLYLQMNSLRVEDTAVYYCAKDRISGTPWYGMDVWGQGTTVTVSS VL: DIQMTQSPSSLSASVGDRVTITCRASQDIADYLAWFQQKPGKAPKSLIFAASSLESWVPLKFSGSGSGTDFTLTISSLQPEDFATYYCQQYSRFPITFGQGTKVEIK: 9.18
H1H163P (antibody, human IgG1, V domains shown, Human IgG1 Fc (H1H)) VH: QVQLVESGGGVVQPGRSLRLSCAASGFTFSNYGMHWVRQAPGKGLEWVTLIEHDGSNKNYVDSVKGRFTISRDNSKNTLYLQMNSLRVEDTAVYYCAKDRITGTPWYGMDVWGQGTTVTVSS VL: DIQMTQSPSSLSASVGDRVTITCRASQDIADYLAWFQQKPGKAPKSLIFAASSLESWVPLKFSGSGSGTDFTLTISSLQPEDFATYYCQQYNRFPITFGQGTRLEIK: 9.08

Kindly review the next binder as well.
Query :: # pKd lookup, item H1H103N (antibody, human IgG1, V domains shown, Tested in human IgG1 Fc format (H1H); also called H1M103N) VH: EVQLVESGGGLVQPGGSLRLSCAASGFTFSSYDMHWVRQTTGKGLEWVSGIGTAGDTYYPGSVKGRFTISREDAKNSLYLQMNSLRAGDTAVYYCARVGYDWNFVAFDYWGQGTLVTVSS VL: DIVMTQSPLSLPVTPGEPASISCRSSQSLLHSNGYNYLDWYLQKPGQSPQLLIHLVSIRASGVPDRFSGSGSGTDFTLKISRVEAEDVGIYYCMQALQTPWTFGQGTKVEIK
Result :: 7.86
